Test system: Echinochloa crus-galli
assay: Herbicidal activity against Echinochloa crus-galli (barnyard grass) assessed as inhibition of fresh weed plant weight at 187.5 g/ha using post-emergence treatment protocol
Assay type: functional
measurement kind: inhibition at 187.5 g/ha (%)
Give your result in % as a bare value.

Measured inhibition at 187.5 g/ha of C#CCN1C(=O)COc2cc(F)c(-n3nnc4c(cnn4CC=C)c3=O)cc21 : 27.8

Measured inhibition at 187.5 g/ha of C#CCN1C(=O)COc2cc(F)c(-n3nnc4nn(CCC)cc4c3=O)cc21 : 10.2

Measured inhibition at 187.5 g/ha of C=CCOc1cc(-n2nnc3nn(CC=C)cc3c2=O)c(F)cc1Cl : 14.1

Measured inhibition at 187.5 g/ha of C=CCN1C(=O)COc2cc(F)c(-n3nnc4nn(CCC)cc4c3=O)cc21 : 0

Measured inhibition at 187.5 g/ha of C=CCN1C(=O)COc2cc(F)c(-n3nnc4c(cnn4CC=C)c3=O)cc21 : 14.2

###

System: Echinochloa crus-galli
assay: Herbicidal activity against Echinochloa crus-galli (barnyard grass) assessed as inhibition of fresh weed plant weight at 1500 g/ha using pre-emergence treatment protocol
Assay type: functional
Bucketed by reported inhibition at 1500 g/ha, buckets being low: < 10%; mid: ≥ 10% and < 40%; high: ≥ 40%

Task: Each molecule maps to one class by inhibition at 1500 g/ha. Which class for C#CCN1C(=O)COc2cc(F)c(-n3nnc4nn(CC=C)cc4c3=O)cc21 ?
Output: high

Task: Each molecule maps to one class by inhibition at 1500 g/ha. Which class for COc1cc(-n2nnc3c(cnn3C)c2=O)c(F)cc1Cl ?
Output: mid

Task: Each molecule maps to one class by inhibition at 1500 g/ha. Which class for C#CCN1C(=O)COc2cc(F)c(-n3nnc4nn(CCC)cc4c3=O)cc21 ?
Output: mid

Task: Each molecule maps to one class by inhibition at 1500 g/ha. Which class for C#CCN1C(=O)COc2cc(F)c(-n3nnc4c(cnn4C)c3=O)cc21 ?
Output: high

Task: Each molecule maps to one class by inhibition at 1500 g/ha. Which class for CCCCOc1cc(-n2nnc3c(cnn3C)c2=O)c(F)cc1Cl ?
Output: low

Task: Each molecule maps to one class by inhibition at 1500 g/ha. Which class for C=CCN1C(=O)COc2cc(F)c(-n3nnc4c(cnn4CCC)c3=O)cc21 ?
Output: high

Task: Each molecule maps to one class by inhibition at 1500 g/ha. Which class for C#CCOc1cc(-n2nnc3c(cnn3CC=C)c2=O)c(F)cc1Cl ?
Output: low

Task: Each molecule maps to one class by inhibition at 1500 g/ha. Which class for C=CCOc1cc(-n2nnc3c(cnn3C)c2=O)c(F)cc1Cl ?
Output: mid

Task: Each molecule maps to one class by inhibition at 1500 g/ha. Which class for C#CCN1C(=O)COc2cc(F)c(-n3nnc4c(c(C(F)(F)F)nn4C)c3=O)cc21 ?
Output: low

Task: Each molecule maps to one class by inhibition at 1500 g/ha. Which class for C#CCN1C(=O)COc2cc(F)c(-n3nnc4c(c(C)nn4C)c3=O)cc21 ?
Output: mid

Task: Each molecule maps to one class by inhibition at 1500 g/ha. Which class for CCOC(=O)Oc1cc(-n2nnc3c(cnn3C)c2=O)c(F)cc1Cl ?
Output: mid

Task: Each molecule maps to one class by inhibition at 1500 g/ha. Which class for COCCOCOc1cc(-n2nnc3c(cnn3C)c2=O)c(F)cc1Cl ?
Output: low

Task: Each molecule maps to one class by inhibition at 1500 g/ha. Which class for C#CCN1C(=O)COc2cc(F)c(-n3nnc4c(cnn4CCC)c3=O)cc21 ?
Output: high

Task: Each molecule maps to one class by inhibition at 1500 g/ha. Which class for CCCN1C(=O)COc2cc(F)c(-n3nnc4c(cnn4C)c3=O)cc21 ?
Output: high

Task: Each molecule maps to one class by inhibition at 1500 g/ha. Which class for CCOc1cc(-n2nnc3c(cnn3C)c2=O)c(F)cc1Cl ?
Output: mid

Task: Each molecule maps to one class by inhibition at 1500 g/ha. Which class for CCCCCOc1cc(-n2nnc3c(cnn3C)c2=O)c(F)cc1Cl ?
Output: low

Task: Each molecule maps to one class by inhibition at 1500 g/ha. Which class for C=CCOc1cc(-n2nnc3c(cnn3CC=C)c2=O)c(F)cc1Cl ?
Output: mid

Task: Each molecule maps to one class by inhibition at 1500 g/ha. Which class for Cn1ncc2c(=O)n(-c3cc(OC/C=C/Cl)c(Cl)cc3F)nnc21 ?
Output: low

Task: Each molecule maps to one class by inhibition at 1500 g/ha. Which class for C=CCN1C(=O)COc2cc(F)c(-n3nnc4nn(CC=C)cc4c3=O)cc21 ?
Output: high

Task: Each molecule maps to one class by inhibition at 1500 g/ha. Which class for C#CCOc1cc(-n2nnc3c(c(C(F)(F)F)nn3C)c2=O)c(F)cc1Cl ?
Output: low

Task: Each molecule maps to one class by inhibition at 1500 g/ha. Which class for C#CCN1C(=O)COc2cc(F)c(-n3nnc4c(cnn4CC=C)c3=O)cc21 ?
Output: high

Task: Each molecule maps to one class by inhibition at 1500 g/ha. Which class for C=CCOc1cc(-n2nnc3c(c(C)nn3C)c2=O)c(F)cc1Cl ?
Output: mid

Task: Each molecule maps to one class by inhibition at 1500 g/ha. Which class for Cn1ncc2c(=O)n(-c3cc(O)c(Cl)cc3F)nnc21 ?
Output: low

Task: Each molecule maps to one class by inhibition at 1500 g/ha. Which class for C=CCN1C(=O)COc2cc(F)c(-n3nnc4c(c(C(F)(F)F)nn4C)c3=O)cc21 ?
Output: low

Task: Each molecule maps to one class by inhibition at 1500 g/ha. Which class for C=CCN1C(=O)COc2cc(F)c(-n3nnc4c(c(C)nn4C)c3=O)cc21 ?
Output: mid

Task: Each molecule maps to one class by inhibition at 1500 g/ha. Which class for C=CCN1C(=O)COc2cc(F)c(-n3nnc4c(cnn4C)c3=O)cc21 ?
Output: mid

Task: Each molecule maps to one class by inhibition at 1500 g/ha. Which class for C=CCN1C(=O)COc2cc(F)c(-n3nnc4nn(CCC)cc4c3=O)cc21 ?
Output: high

Task: Each molecule maps to one class by inhibition at 1500 g/ha. Which class for C=CCN1C(=O)COc2cc(F)c(-n3nnc4c(cnn4CC=C)c3=O)cc21 ?
Output: high

Task: Each molecule maps to one class by inhibition at 1500 g/ha. Which class for Cn1ncc2c(=O)n(-c3cc(OCC#N)c(Cl)cc3F)nnc21 ?
Output: mid

Task: Each molecule maps to one class by inhibition at 1500 g/ha. Which class for C=C(Cl)COc1cc(-n2nnc3c(cnn3C)c2=O)c(F)cc1Cl ?
Output: mid

Task: Each molecule maps to one class by inhibition at 1500 g/ha. Which class for C#CCOc1cc(-n2nnc3c(c(C)nn3C)c2=O)c(F)cc1Cl ?
Output: low

Task: Each molecule maps to one class by inhibition at 1500 g/ha. Which class for C#CCOc1cc(-n2nnc3c(cnn3C)c2=O)c(F)cc1Cl ?
Output: low

###

Test system: Digitaria sanguinalis
assay: Herbicidal activity against Digitaria sanguinalis (hairy crabgrass) assessed as inhibition of fresh weed plant weight at 1500 g/ha using pre-emergence treatment protocol
Type: functional
Provide the recorded inhibition at 1500 g/ha for the entries that follow.
Give your result in % as a bare value.

Measured inhibition at 1500 g/ha of C=CCOc1cc(-n2nnc3nn(CC=C)cc3c2=O)c(F)cc1Cl : 18

Measured inhibition at 1500 g/ha of C=CCN1C(=O)COc2cc(F)c(-n3nnc4c(c(C(F)(F)F)nn4C)c3=O)cc21 : 0

Measured inhibition at 1500 g/ha of C#CCN1C(=O)COc2cc(F)c(-n3nnc4nn(CC=C)cc4c3=O)cc21 : 80.7

Measured inhibition at 1500 g/ha of C=CCOc1cc(-n2nnc3c(cnn3CC=C)c2=O)c(F)cc1Cl : 10.5

Measured inhibition at 1500 g/ha of CCCN1C(=O)COc2cc(F)c(-n3nnc4c(cnn4C)c3=O)cc21 : 94.1

Measured inhibition at 1500 g/ha of C#CCN1C(=O)COc2cc(F)c(-n3nnc4c(cnn4CC=C)c3=O)cc21 : 100

Measured inhibition at 1500 g/ha of C#CCN1C(=O)COc2cc(F)c(-n3nnc4c(c(C)nn4C)c3=O)cc21 : 57

Measured inhibition at 1500 g/ha of Cn1ncc2c(=O)n(-c3cc(OC/C=C/Cl)c(Cl)cc3F)nnc21 : 1.4

Measured inhibition at 1500 g/ha of C#CCOc1cc(-n2nnc3c(c(C)nn3C)c2=O)c(F)cc1Cl : 38.3

Measured inhibition at 1500 g/ha of C=CCN1C(=O)COc2cc(F)c(-n3nnc4nn(CC=C)cc4c3=O)cc21 : 90

Measured inhibition at 1500 g/ha of C=CCN1C(=O)COc2cc(F)c(-n3nnc4c(cnn4CCC)c3=O)cc21 : 90.7

Measured inhibition at 1500 g/ha of C#CCN1C(=O)COc2cc(F)c(-n3nnc4nn(CCC)cc4c3=O)cc21 : 51.6
